src = the supplement of paper PMC3334620

Molecular target: Hmlalpha2 (UniProt P0CY09)
Sequence: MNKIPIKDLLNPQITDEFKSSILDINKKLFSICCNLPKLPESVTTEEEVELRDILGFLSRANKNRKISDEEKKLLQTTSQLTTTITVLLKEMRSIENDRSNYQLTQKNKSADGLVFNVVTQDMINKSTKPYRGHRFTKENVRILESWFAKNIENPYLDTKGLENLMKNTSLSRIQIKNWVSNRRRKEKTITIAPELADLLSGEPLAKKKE
Test: PBM E-score (8-mer binding enrichment) (E-score (-0.5 to 0.5)); higher = stronger / more preferred TF binding
Conditions: protein concentration: 200 nM; construct: GST-full length
In all, about 33,000 sequences were measured (“E-score (-0.5 to 0.5)”: median about -0.04, highest 2% from about 0.36 on). For the sample, the highest values were picked, then their nearest neighbours and some sequences at random.
# PBM E-score annotations
// print number alone

Answered cases to consult:
GCTTCAAC = 0.0375
AGCTCTTC = -0.21

Query: I'd like to know its PBM E-score. The sequence in question is "AATACATT"
Reply: 0.329

Query: Follow-up item: "GAATGCTC"
Reply: -0.225

Query: Follow-up item: "CACTGTTA"
Reply: 0.0828

Query: Follow-up item: "ACGTAACG"
Reply: 0.161

Query: Follow-up item: "ACGTAACA"
Reply: 0.385
